test: yeast display, Sf9 membrane polyspecificity reagent, FACS + sequencing; frameworks hold sequencing errors

- sequence.code: "QVQLVESGGGLVQAGGSLRLSCAASGSISGYYAMGWYRQAPGKERELVASIRYTGARTYYADSVKGRFTISRDNAKNTVYLQMNSLKPEDTAVYYGAADVKRDRVWGGDYWGQGTQVTVSS"
  polyreactivity (PSR sort gate): "low polyreactivity"
- sequence.code: "QVQLVESGGGLVQAGGSLRLSCAASGSIFDFYAMGWYRQAPGKERELVAAIDDIDDSTYYADSVKGRFTISRDNAKNTVYLQMNCLNPEDTAVYYCAAELRPGYRSSYGLIYDYWGQGTQVTVSS"
  polyreactivity (PSR sort gate): "low polyreactivity"
- sequence.code: "QVQLVESGGGLVQAGGSLRLSCAASGRTLYLYAMGWYRQEPGKERELVAGITWSGGSTYYADSVKGRFTISRDNAKNTVYLQMNSLKPEDTAVYYCAAVSYPDYDYWGQGTQVTVSS"
  polyreactivity (PSR sort gate): "low polyreactivity"

Value source: the nanobody polyreactivity screen of Harvey et al. (2022)
